System: COLO 205 colon
ASSAY REMARKS: NCI tumour cell line growth inhibition, 48 h; in the data active = GI50 below about 0.43 µM; inactive = the rest
Allowed answers: active, inactive

Please review the entries below; each comes with its answer.
[[record]]
molecule = "COc1cc(/C=C2\\C[C@H]3[C@@H]4CC=C5C[C@@H](OC(C)=O)CC[C@]5(C)[C@H]4CC[C@]3(C)[C@H]2OC(C)=O)ccc1OCCN1CCCCC1"
discrete_label = "inactive"

[[record]]
molecule = "COC(C)(C)[C@H](O)C(O)CC(C)[C@@H]1CCC23CC12CCC1[C@@]2(C)CCC(OC(C)=O)C(C)(C)C2CC(OC2OC(COC(C)=O)C(O)C(O)C2O)[C@]13C (some centres undefined)"
discrete_label = "inactive"

[[record]]
molecule = "O=[N+]([O-])c1cc2c(c([N+](=O)[O-])c1)Nc1ccccc1O2"
discrete_label = "inactive"

[[record]]
molecule = "CC(=O)[O][Bi]([c]1ccccc1)[c]1ccccc1"
discrete_label = "inactive"

[[record]]
molecule = "Oc1c(I)cc(I)cc1CN(Cc1ccccn1)Cc1ccccn1"
discrete_label = "inactive"

[[record]]
molecule = "Clc1ccc2c(NCCNc3nc(N4CCCC4)nc4ccccc34)ccnc2c1"
discrete_label = "active"


// outcome(item) with item = Cc1nc2sc(C(=O)Nc3cccc(Br)c3)c(N)c2cc1C(O)c1ccccc1 (centres undefined) inactive

// outcome(item) with item = COc1cc(C)c(NC(=O)CN(C)C)cc1Nc1nc(Nc2cccc(F)c2C(N)=O)c2cc[nH]c2n1 active

// outcome(item) with item = C=C1C(=O)O[C@H]2[C@H]1CC/C(COC(=O)NCc1cc(OC)cc(OC)c1)=C\CC[C@@]1(C)O[C@@H]21 inactive

* * *

Listing: TGI of selected molecules
Tested on: TK-10 renal
ASSAY REMARKS: NCI tumour cell line growth inhibition, 48 h
# number only, unit µM dropped from output

[[record]]
molecule = "CC(C)N1[C@@H]2CCCC[C@H]2N(C(C)C)P1(=O)C(=O)/C=C/c1ccccc1"
unit = "µM"
measured_result = 12.9


For the next question, use this molecule.
Entry Cc1nc2sc(C(=O)Nc3cccc(Br)c3)c(N)c2cc1C(O)c1ccccc1 (stereo not given) , system TK-10 renal: what TGI was measured? 26.7

* * *

System: UO-31 renal
ASSAY REMARKS: NCI tumour cell line growth inhibition, 48 h
REPORTED ENDPOINT: GI50

Example entries and their recorded answers appear below.
[[record]]
mol = "C=C(C)[C@@H]1CC[C@]2(C(N)=O)CC[C@]3(C)[C@H](CC[C@@H]4[C@@]5(C)C/C(=C/c6cccnc6)[C@H](O)C(C)(C)[C@@H]5CC[C@]43C)[C@@H]12"
measured_result = "3.02 µM"

[[record]]
mol = "C[C@@H]1OCC2(CCN(c3cnc(Sc4ccnc(N)c4Cl)c(N)n3)CC2)[C@@H]1N"
measured_result = "0.926 µM"

[[record]]
mol = "COc1ccc2nc3ccccc3c(NCc3ccc(C)cc3)c2c1"
measured_result = "1.28 µM"


I am curious: what GI50 value has been reported for Nc1nc(-c2ccccc2)cc(-c2ccc(Cl)cc2)c1-c1nc2ccccc2o1 ? 8.36 µM

* * *

Tested on: CCRF-CEM leukemia
ASSAY REMARKS: NCI tumour cell line growth inhibition, 48 h
Listing: TGI of selected molecules

[[record]]
molecule = "CC(=O)[O][Bi]([c]1ccccc1)[c]1ccccc1"
reported_endpoint = "TGI"
measured_result = "5 µM"

[[record]]
molecule = "COC(=O)C(=O)C(C(=O)OC)C(=O)C(=O)Nc1cc(Cl)c(Cl)cc1Cl (stereo not given)"
reported_endpoint = "TGI"
measured_result = "> 100 µM"

[[record]]
molecule = "COc1ccc(C2CC(=O)c3c(O)c(OC)c(OC)c(OC)c3O2)cc1O (stereo not given)"
reported_endpoint = "TGI"
measured_result = "> 100 µM"


For the next question, use this molecule.
I am curious: what TGI value has been reported for O=C(Nc1ccc(Cl)cc1)NS(=O)(=O)c1c(-c2ccccc2)oc2ccccc2c1=O ? > 100 µM

Origin of values: PubChem BioAssay (NCI)
